assay: Enzyme screens for resolution of racemic N-(acetyl)-4-keto-D,L-proline methyl ester (Example 7, comparative); assay type: biochemical; details: 0.100M racemate; 0.20M sodium succinate pH 6.0; 5 h; 5.0 to 30 mg/mL enzyme; 25° C.
The reader will find reported conv. (percent conversion of the racemate) values listed item by item below.
Value expressed in %; do not type the unit.

Qu. Which conv. (percent conversion of the racemate) value belongs to protease (Chirazyme P1): commercial enzyme preparation, source Bacillus licheniformis (protein, UniProt P00780 106-379, looked up) Subtilisin Carlsberg: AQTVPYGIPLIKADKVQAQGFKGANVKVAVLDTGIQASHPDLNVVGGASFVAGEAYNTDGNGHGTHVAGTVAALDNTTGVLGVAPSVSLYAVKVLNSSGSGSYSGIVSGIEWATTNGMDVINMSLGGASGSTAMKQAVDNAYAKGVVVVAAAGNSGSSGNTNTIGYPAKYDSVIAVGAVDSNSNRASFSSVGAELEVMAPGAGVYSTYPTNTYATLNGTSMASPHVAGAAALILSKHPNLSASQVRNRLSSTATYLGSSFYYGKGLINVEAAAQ ?
Ans. 43

---
Qu. Which conv. (percent conversion of the racemate) value belongs to protease, trypsin bovine pancreas: commercial trypsin, source bovine pancreas (protein, UniProt P00760 24-246, looked up) Serine protease 1: IVGGYTCGANTVPYQVSLNSGYHFCGGSLINSQWVVSAAHCYKSGIQVRLGEDNINVVEGNEQFISASKSIVHPSYNSNTLNNDIMLIKLKSAASLNSRVASISLPTSCASAGTQCLISGWGNTKSSGTSYPDVLKCLKAPILSDSSCKSAYPGQITSNMFCAGYLEGGKDSCQGDSGGPVVCSGKLQGIVSWGSGCAQKNKPGVYTKVCNYVSWIKQTIASN ?
Ans. 0

Qu. Which conv. (percent conversion of the racemate) value belongs to protease, type X: commercial enzyme preparation, source B. thermoproteoliticus rokko (protein, UniProt P00800 233-548, looked up) Thermolysin: ITGTSTVGVGRGVLGDQKNINTTYSTYYYLQDNTRGNGIFTYDAKYRTTLPGSLWADADNQFFASYDAPAVDAHYYAGVTYDYYKNVHNRLSYDGNNAAIRSSVHYSQGYNNAFWNGSQMVYGDGDGQTFIPLSGGIDVVAHELTHAVTDYTAGLIYQNESGAINEAISDIFGTLVEFYANKNPDWEIGEDVYTPGISGDSLRSMSDPAKYGDPDHYSKRYTGTQDNGGVHINSGIINKAAYLISQGGTHYGVSVVGIGRDKLGKIFYRALTQYLTPTSNFSQLRAAAVQSATDLYGSTSQEVASVKQAFDAVGVK ?
Ans. 0

Hello, the source for this data is patent US5928933A, in case you need it.
